# assay-target: Sodium- and chloride-dependent GABA transporter 1 (Mus musculus)
# experiment-description: Residual mouse GAT1-mediated [3H]GABA uptake expressed in human HEK cells at 1 mM
# settings: HEK293
measurement-type: residual activity (%)
I only need the number, in %, no unit after it.

In the examples that follow, each entry is paired with its recorded residual activity.
# given-smiles, readout-number
measured = [
    ("CC(C)(C)CC(C)(C)n1nnnc1CNCCN", 133),
    ("C1CN(Cc2nnn[nH]2)CCN1", 90),
    ("C1CN(Cc2nnn[nH]2)CCO1", 90.6),
    ("NCc1nnn[nH]1", 85.1),
    ("NCC(=O)O", 83.1),
]

Note: attention shifts to another entry.
Entry `NCCNCc1nnn[nH]1` , residual activity reported as 81.7
